Tested on: Probandinnen
Experiment: Olfactometer test with psychophysiological measurement (blood volume pulse amplitude, heart rate) versus placebo
Type: in vivo, Menschen
Conditions: gegenüber der Placebokontrolle (Propylenglykol); 5 min fragrance by olfactometer
quantityName: Blutvolumenpuls Amplitude

# compound, quantityName, result
rows = [
    ("CCCCCC1CCCC(=O)O1 (centres unmarked) [Tetrahydro-6-pentyl-2H-pyran-2-one]", "Blutvolumenpuls Amplitude", "Anstieg"),
    ("C=CC(C)CCCC(C)(C)O (centres unmarked)", "Blutvolumenpuls Amplitude", "Anstieg"),
]
